- testMethodNotes: Elimination half life in mouse at 5 mg/kg, po
- Type: ADME, organism-based
- Parameters: dose 5 mg/kg, route oral
- measurementSetup: in vivo
readoutLabel: half-life (h)

CCOCCOCCOC1CCC(NC(=O)NC23CC4CC(CC(C4)C2)C3)CC1 (centres undefined) :: 2.67

[P] O=C(NCCCCCOCCCN1CCOCC1)NC12CC3CC(CC(C3)C1)C2
[Q] CCCCCOC1CCC(NC(=O)NC23CC4CC(CC(C4)C2)C3)CC1 (centres undefined)
[R] O=C(NC1CCC(OCCCN2CCOCC2)CC1)NC12CC3CC(CC(C3)C1)C2 (centres undefined)
Data request: Ascending by half-life, please. Kindly provide the labels arranged according to the requested ordering.
Data returned: P, R, Q

---

- testMethodNotes: Elimination half life in dog at 0.3 mg/kg, po
- Assay type: ADME, organism-based, Canis lupus familiaris
- Set-up: dose 0.3 mg/kg, route oral
- measurementSetup: in vivo
readoutLabel: half-life (h)

Use the examples below as a reference point.
CCOCCOCCOC1CCC(NC(=O)NC23CC4CC(CC(C4)C2)C3)CC1 (stereo not drawn) :: 1.5
O=C(NC1CCC(OCCCN2CCOCC2)CC1)NC12CC3CC(CC(C3)C1)C2 (stereo not drawn) :: 2.17
CCCCOCCCCCNC(=O)NC12CC3CC(CC(C3)C1)C2 :: 2.17
CCOCCOCCOCCCCCNC(=O)NC12CC3CC(CC(C3)C1)C2 :: 3
CCCCCOC1CCC(NC(=O)NC23CC4CC(CC(C4)C2)C3)CC1 (stereo not drawn) :: 2

[I] O=C(Nc1ccc(OCCCN2CCOCC2)cc1)NC12CC3CC(CC(C3)C1)C2
[II] O=C(NCCCCCOCCCN1CCOCC1)NC12CC3CC(CC(C3)C1)C2
[III] CCOCCOCCOc1ccc(NC(=O)NC23CC4CC(CC(C4)C2)C3)cc1
Data request: Ascending by half-life, please. Kindly provide the labels arranged according to the requested ordering.
Data returned: II, I, III

---

- testMethodNotes: Stability in human liver microsomes at 100 uM after 1 hr
- Assay type: ADME, Microsome
- measurementSetup: read-out: Stability
readoutLabel: remaining at 1 h, 100 µM (%)

Use the examples below as a reference point.
CS(=O)(=O)NCCOCCOCCCCCNC(=O)NC12CC3CC(CC(C3)C1)C2 :: 42
CCOCCOCCOC1CCC(NC(=O)NC23CC4CC(CC(C4)C2)C3)CC1 (stereo not drawn) :: 91
CCCC(C)COCCCCCNC(=O)NC12CC3CC(CC(C3)C1)C2 (stereo not drawn) :: 12
COCCOCCOCCOCCCCCNC(=O)NC12CC3CC(CC(C3)C1)C2 :: 54
CCOCCOCCOCCCCCNC(=O)NC12CC3CC(CC(C3)C1)C2 :: 30

[a] O=C(NCCCCCOCCOCCOCC(F)(F)F)NC12CC3CC(CC(C3)C1)C2
[b] CCCOCCCCOCCCCCNC(=O)NC12CC3CC(CC(C3)C1)C2
[c] CCOCCOCCOc1cccc(NC(=O)NC23CC4CC(CC(C4)C2)C3)c1
Data request: Sort the 3 molecules by remaining at 1 h, 100 µM; largest first, smallest last. Kindly provide the labels arranged according to the requested ordering.
Data returned: c, a, b
(c: 56%, a: 39%, b: 7.5%)

---

- testMethodNotes: Elimination half life in rat at 5 mg/kg, po
- Type: ADME, organism-based
- Set-up: dose 5 mg/kg, route oral
- measurementSetup: in vivo
readoutLabel: half-life (h)

Use the examples below as a reference point.
O=C(NCCCCCOCCCN1CCOCC1)NC12CC3CC(CC(C3)C1)C2 :: 3.33
CCOCCOCCOCCCCCNC(=O)NC12CC3CC(CC(C3)C1)C2 :: 0.65
O=C(NC1CCC(OCCCN2CCOCC2)CC1)NC12CC3CC(CC(C3)C1)C2 (stereo unspecified) :: 1.83

[P] CCOCCOCCOc1ccc(NC(=O)NC23CC4CC(CC(C4)C2)C3)cc1
[Q] CCOCCOCCOC1CCC(NC(=O)NC23CC4CC(CC(C4)C2)C3)CC1 (stereo unspecified)
Data request: Which entry shows the lesser value of half-life here, P or Q ? Please indicate the selected item by its label.
Data returned: Q
(Q: 2.5 h, P: 9.67 h)

---

- testMethodNotes: Stability in human liver S9 fraction at 100 uM after 1 hr
- Assay type: ADME, subcellular
- measurementSetup: read-out: Stability
readoutLabel: remaining at 1 h, 100 µM (%)

O=C(NCCCCCOCCOCCOCC(F)(F)F)NC12CC3CC(CC(C3)C1)C2 :: 1.1
CCOCCOCCOCCCCCCC(=O)NC12CC3CC(CC(C3)C1)C2 :: 5
CCOCCOCCOc1ccc(NC(=O)NC23CC4CC(CC(C4)C2)C3)cc1 :: 70

[1] CCOCCOCCOC1CCC(NC(=O)NC23CC4CC(CC(C4)C2)C3)CC1 (stereo not given)
[2] CCOCCOCCOc1cccc(NC(=O)NC23CC4CC(CC(C4)C2)C3)c1
Data request: // pick larger remaining at 1 h, 100 µM from pair: 1 vs 2 Please indicate the selected item by its label.
Data returned: 1
(1: 79%, 2: 9%)

---

- testMethodNotes: Stability in human liver microsomes at 100 uM after 1 hr
- Assay type: ADME, Microsome
- measurementSetup: read-out: Stability
readoutLabel: remaining at 1 h, 100 µM (%)

Use the examples below as a reference point.
CCCOCCCOCCCCCNC(=O)NC12CC3CC(CC(C3)C1)C2 :: 6.8
O=C(NCCCCCOCCCN1CCOCC1)NC12CC3CC(CC(C3)C1)C2 :: 89
O=C(Nc1ccc(OCCCN2CCOCC2)cc1)NC12CC3CC(CC(C3)C1)C2 :: 93
O=C(NC1CCC(OCCCN2CCOCC2)CC1)NC12CC3CC(CC(C3)C1)C2 (stereo unspecified) :: 92
CCOCCOCCOCCCCCNC(=O)CC12CC3CC(CC(C3)C1)C2 :: 5

[a] CCCCC(C)OCCCCCNC(=O)NC12CC3CC(CC(C3)C1)C2 (stereo unspecified)
[b] CCc1ccc(OCCOCCOCCCCCNC(=O)NC23CC4CC(CC(C4)C2)C3)cc1
[c] CCOCCOCCOCCCCCCC(=O)NC12CC3CC(CC(C3)C1)C2
[d] CS(=O)(=O)NCCCCCOCCCCCNC(=O)NC12CC3CC(CC(C3)C1)C2
Data request: Sort the 4 molecules by remaining at 1 h, 100 µM; largest first, smallest last. Kindly provide the labels arranged according to the requested ordering.
Data returned: d, c, b, a
(d: 59%, c: 32%, b: 21%, a: 12%)

---

- testMethodNotes: Partition coefficient, log P of the compound
- Type: physicochemical
- measurementSetup: octanol/water
readoutLabel: logP

Use the examples below as a reference point.
CCOCCOCCOc1ccc(NC(=O)NC23CC4CC(CC(C4)C2)C3)cc1 :: 3.9
O=C(NC1CCC(OCCCN2CCOCC2)CC1)NC12CC3CC(CC(C3)C1)C2 (stereo not drawn) :: 2.2
CCOCCOCCOCCCCCNC(=O)NC12CC3CC(CC(C3)C1)C2 :: 3.6
CCOCCOCCOC1CCC(NC(=O)NC23CC4CC(CC(C4)C2)C3)CC1 (stereo not drawn) :: 2.9
O=C(NCCCCCOCCCN1CCOCC1)NC12CC3CC(CC(C3)C1)C2 :: 2.4

[P] O=C(Nc1ccc(OCCCN2CCOCC2)cc1)NC12CC3CC(CC(C3)C1)C2
[Q] CCCCOCCCCCNC(=O)NC12CC3CC(CC(C3)C1)C2
Data request: Which entry shows the lesser value of logP here, P or Q ? Please indicate the selected item by its label.
Data returned: P
(P: 2.9, Q: 5)

---

- testMethodNotes: Stability in human liver S9 fraction at 100 uM after 1 hr
- Format: ADME, subcellular
- measurementSetup: read-out: Stability
readoutLabel: remaining at 1 h, 100 µM (%)

Use the examples below as a reference point.
CCOCCOCCOCCCCCNC(=O)NC12CC3CC(CC(C3)C1)C2 :: 11
CS(=O)(=O)NCCOCCOCCCCCNC(=O)NC12CC3CC(CC(C3)C1)C2 :: 12

[1] O=C(Nc1ccc(OCCCN2CCOCC2)cc1)NC12CC3CC(CC(C3)C1)C2
[2] COCCOCCOCCOCCCCCNC(=O)NC12CC3CC(CC(C3)C1)C2
Data request: // pick larger remaining at 1 h, 100 µM from pair: 1 vs 2 Please indicate the selected item by its label.
Data returned: 1

[A] O=C(NC1CCC(OCCCN2CCOCC2)CC1)NC12CC3CC(CC(C3)C1)C2 (stereo unspecified)
[B] O=C(NCCCCCOCCCN1CCOCC1)NC12CC3CC(CC(C3)C1)C2
Data request: // pick larger remaining at 1 h, 100 µM from pair: A vs B Please indicate the selected item by its label.
Data returned: A

Data provenance: ChEMBL document CHEMBL1148831
